target: rhlegumain (hLGMN(V18-Y433)_VD-8xHis-S2-r) (Homo sapiens, UniProt Q99538); construct: construct name: hLGMN(V18-Y433)_VD-8xHis-S2-r; VD linker (C); 8xHis (C); made in house; test: AEP activity enzymatic assay; type: biochemical
Sequence (Q99538 26-323 limits assumed): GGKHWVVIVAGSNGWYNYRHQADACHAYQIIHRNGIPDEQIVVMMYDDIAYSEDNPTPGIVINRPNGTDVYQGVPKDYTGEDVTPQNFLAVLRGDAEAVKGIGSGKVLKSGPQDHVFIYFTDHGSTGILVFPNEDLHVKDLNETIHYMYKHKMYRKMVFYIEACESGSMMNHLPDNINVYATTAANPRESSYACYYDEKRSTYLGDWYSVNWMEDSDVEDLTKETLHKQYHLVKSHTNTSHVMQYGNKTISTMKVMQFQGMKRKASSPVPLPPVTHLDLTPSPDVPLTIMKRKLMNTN
Binary call on IC50 with cut-off 5 nM: strictly below means 1 (yes), and equality or higher means 0 (no).

Field: example entries. Status: answers known.
>  <structure>
NC(=O)CN(NC(=O)[C@@H]1CCCN1C(=O)C1(c2ccc(Cl)cc2)CC1)C(=O)CF

>  <class name>
1 (yes)

$$$$
>  <structure>
NC(=O)CN(NC(=O)[C@@H]1CCCN1C(=O)C1(c2ccccc2)CCC1)C(=O)CF

>  <class name>
1 (yes)

$$$$
>  <structure>
C#Cc1ccc(C2(C(=O)N3CCC[C@H]3C(=O)NN(CC(N)=O)C(=O)CF)CC2)cc1

>  <class name>
1 (yes)

$$$$
>  <structure>
NC(=O)CN(NC(=O)[C@@H]1CCCN1C(=O)CCc1ccccc1)C(=O)CF

>  <class name>
0 (no)

$$$$
>  <structure>
NC(=O)CN(NC(=O)[C@@H]1CCCN1C(=O)C1(c2ccc(Cl)cc2)CCC1)C(=O)CF

>  <class name>
1 (yes)

$$$$

Lookup: Would you kindly verify if IC50 of "NC(=O)CN(NC(=O)[C@@H]1CCCN1S(=O)(=O)Cc1ccccc1)C(=O)CF" is strictly less than 5 nM?
Found: 0 (no)

Lookup: Would you kindly verify if IC50 of "NC(=O)CN(NC(=O)[C@@H]1CCCN1S(=O)(=O)c1ccccc1)C(=O)CF" is strictly less than 5 nM?
Found: 0 (no)

Lookup: Would you kindly verify if IC50 of "NC(=O)CN(NC(=O)[C@@H]1CCCN1C(=O)Cc1ccccc1)C(=O)CF" is strictly less than 5 nM?
Found: 0 (no)

Lookup: Would you kindly verify if IC50 of "NC(=O)CN(NC(=O)[C@@H]1CCCN1C(=O)C(F)(F)c1ccccc1)C(=O)CF" is strictly less than 5 nM?
Found: 1 (yes)

Lookup: Would you kindly verify if IC50 of "C#CCOc1ccc(C2(C(=O)N3CCC[C@H]3C(=O)NN(CC(N)=O)C(=O)CF)CC2)cc1" is strictly less than 5 nM?
Found: 1 (yes)

Lookup: Would you kindly verify if IC50 of "NC(=O)CN(NC(=O)[C@@H]1CCCN1S(=O)(=O)CCc1ccccc1)C(=O)CF" is strictly less than 5 nM?
Found: 0 (no)
